test: Inhibition of gamma-secretase expressed in CHO cells expressing wild type human recombinant APP assessed as reduction in amyloid beta40 production
pEC50: −log10 of the molar value.
Parameter threshold = 5. Response is 1 when pEC50 meets or exceeds it, else 0.

Completed entries (count: 8):
CC[C@H](C)[C@@H](CO)NS(=O)(=O)c1cccc(Cl)c1Cl | 1
C[C@@H](CO)NS(=O)(=O)c1ccc(Cl)cc1 | 0
CC[C@H](C)[C@@H](CO)NS(=O)(=O)c1cc(Cl)cc(Cl)c1 | 0
CC[C@H](C)[C@@H](CO)NS(=O)(=O)c1ccc(F)cc1 | 1
CC(C)[C@@H](CO)NS(=O)(=O)c1ccc(Cl)cc1 | 1
CC(C)C[C@@H](CO)NS(=O)(=O)c1ccc(Cl)cc1 | 0
CC[C@H](C)[C@H](NS(=O)(=O)c1ccc(Cl)cc1)C(=O)O | 0
CC[C@H](C)[C@@H](CO)NS(=O)(=O)c1ccc(C)cc1 | 0

I'd appreciate it if you could say whether CC[C@H](C)[C@@H](CO)NS(=O)(=O)c1ccc(Br)cc1 has pEC50 at least equal to 5.
1

I'd appreciate it if you could say whether O=S(=O)(N[C@H](CO)C1CCCCC1)c1ccc(Cl)cc1 has pEC50 at least equal to 5.
1
